Just for reference, patent US11319313B2 is where these values come from.

- assay-name: Solubility of crystalline HCl salt in various solvents (visual dissolution)
- Type: physicochemical
- condition-summary: 22 °C, organic solvent or mixture, thermodynamic from solid; N,N-dimethylformamide; ambient temperature, visual inspection
- Protocol: […]; (ii) the resulting mixtures were then stirred at ambient temperature (about 21° C. to about 23° C.) for 5-10 minutes; (iii) the mixtures were then visually inspected to determine if the crystalline HCl salt had completely dissolved; (iv) if the crystalline HCl salt had not completely dissolved more solvent was added until complete dissolution occurred. […] The solubilities were then calculated using the total quantity of crystalline HCl salt and solvent used for each solvent.
measured-metric: Solubility

molecule: [2H][C@]1(Cc2ccc(OCCc3ccc(CC)cn3)cc2)SC(=O)NC1=O [deuterium-enriched (R)-pioglitazone]
observed-value: ~50 mg/mL

----------
- assay-name: pH-dependent solubility of crystalline salts (48 h equilibration, HPLC)
- Assay type: physicochemical
- condition-summary: 22 °C, pH 0.5, aqueous buffer, thermodynamic from solid
- Method: The pH-dependent solubility profiles of the crystalline DCl salt form of deuterium-enriched (R)-pioglitazone, and crystalline pioglitazone HCl were determined at room temperature (about 21° C. to about 23° C.) in the pH range of 0.3-7.6. For the crystalline HCl salt form of deuterium-enriched (R)-pioglitazone, the pH-dependent solubility profile was measured at room temperature (about 21° C. to about 23° C.) in the pH range of 0.3-3.5. […]

molecule: [2H][C@]1(Cc2ccc(OCCc3ccc(CC)cn3)cc2)SC(=O)NC1=O [deuterium-enriched (R)-pioglitazone]
solubility at 48 h (µg/mL): 2330

----------
- assay-name: pH-dependent solubility of crystalline salts (48 h equilibration, HPLC)
- Assay type: physicochemical
- condition-summary: 22 °C, pH 5.7, aqueous buffer, thermodynamic from solid
- Experimental: The pH-dependent solubility profiles of the crystalline DCl salt form of deuterium-enriched (R)-pioglitazone, and crystalline pioglitazone HCl were determined at room temperature (about 21° C. to about 23° C.) in the pH range of 0.3-7.6. For the crystalline HCl salt form of deuterium-enriched (R)-pioglitazone, the pH-dependent solubility profile was measured at room temperature (about 21° C. to about 23° C.) in the pH range of 0.3-3.5. […]

molecule: [2H][C@]1(Cc2ccc(OCCc3ccc(CC)cn3)cc2)SC(=O)NC1=O [deuterium-enriched (R)-pioglitazone]
solubility at 48 h: < 0.05 mg/mL

----------
- assay-name: pH-dependent solubility of crystalline salts (48 h equilibration, HPLC)
- Assay type: physicochemical
- condition-summary: 22 °C, pH 0.7, aqueous buffer, thermodynamic from solid
Where a name gives a salt, the structure may show the parent alone.
measured-metric: solubility at 48 h (µg/mL)

molecule: CCc1ccc(CCOc2ccc(CC3SC(=O)NC3=O)cc2)nc1 (centres unmarked) [Pioglitazone HCl Salt, pioglitazone hydrochloride, reference compound]
measured-metric: solubility at 48 h
observed-value: 4000

molecule: [2H][C@]1(Cc2ccc(OCCc3ccc(CC)cn3)cc2)SC(=O)NC1=O [deuterium-enriched (R)-pioglitazone]
measured-metric: solubility at 48 h
observed-value: 3270

----------
- assay-name: Solubility of crystalline HCl salt in various solvents (visual dissolution)
- Format: physicochemical
- condition-summary: 22 °C, organic solvent or mixture, thermodynamic from solid; Dichloromethane; ambient temperature, visual inspection

compound: [2H][C@]1(Cc2ccc(OCCc3ccc(CC)cn3)cc2)SC(=O)NC1=O [deuterium-enriched (R)-pioglitazone]
Solubility: 5000 to 10000 µg/mL
